Could you please report measured protein stability index for the items listed next?
B1: CAMK2D (parent)
chain: IVRLHDSISEEGFHYLVFDLVTGG

Variants of: B1
Test: protein stability index of a GFP-peptide fusion (GPS, HEK-293T) (PSI 1-6); higher = more stable;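 note: lentivirally expressed fusions sorted by FACS into six bins by GFP to DsRed ratio, PSI derived from sequencing read proportions per bin multiplied by bin number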
Settings: c terminus: a fixed tail appended
// no unit string in output, number only

[Q] Using the record for E10S , report its protein stability index.
[A] 2.15

[Q] Using the record for L20G , report its protein stability index.
[A] 1.93

[Q] Using the record for G24Y , report its protein stability index.
[A] 3.88

[Q] Using the record for G12S , report its protein stability index.
[A] 3.25

[Q] Using the record for I8P , report its protein stability index.
[A] 3.04

[Q] Using the record for H5N , report its protein stability index.
[A] 2.33

[Q] Using the record for G12Y , report its protein stability index.
[A] 3.96

[Q] Using the record for G24E , report its protein stability index.
[A] 4.45

[Q] Using the record for L20M , report its protein stability index.
[A] 3.24

[Q] Using the record for F13E , report its protein stability index.
[A] 2.6

[Q] Using the record for V2T , report its protein stability index.
[A] 2.52

[Q] Using the record for L4F , report its protein stability index.
[A] 2.4

[Q] Using the record for E11P , report its protein stability index.
[A] 2.13

[Q] Using the record for H14E , report its protein stability index.
[A] 1.83

[Q] Using the record for L4D , report its protein stability index.
[A] 1.8

[Q] Using the record for L20N , report its protein stability index.
[A] 2.25

[Q] Using the record for F18Q , report its protein stability index.
[A] 1.33

[Q] Using the record for G23K , report its protein stability index.
[A] 2.19

[Q] Using the record for V21F , report its protein stability index.
[A] 3.33

[Q] Using the record for V21H , report its protein stability index.
[A] 2

[Q] Using the record for E11L , report its protein stability index.
[A] 3.7

[Q] Using the record for L16S , report its protein stability index.
[A] 1.55

[Q] Using the record for E10A , report its protein stability index.
[A] 3.84

[Q] Using the record for E10R , report its protein stability index.
[A] 2.65

[Q] Using the record for F18V , report its protein stability index.
[A] 4.52

[Q] Using the record for V17S , report its protein stability index.
[A] 3.19

[Q] Using the record for F13T , report its protein stability index.
[A] 3.34

[Q] Using the record for Y15P , report its protein stability index.
[A] 1.75

[Q] Using the record for S9Q , report its protein stability index.
[A] 4.38

[Q] Using the record for F18R , report its protein stability index.
[A] 1.79

[Q] Using the record for L20C , report its protein stability index.
[A] 3.9

[Q] Using the record for I8S , report its protein stability index.
[A] 3.33

[Q] Using the record for Y15H , report its protein stability index.
[A] 1.2

[Q] Using the record for L16I , report its protein stability index.
[A] 2.66

[Q] Using the record for V17F , report its protein stability index.
[A] 2.39

[Q] Using the record for D19P , report its protein stability index.
[A] 3.21

[Q] Using the record for V17T , report its protein stability index.
[A] 1.75

[Q] Using the record for F13S , report its protein stability index.
[A] 3.27

[Q] Using the record for L16Q , report its protein stability index.
[A] 2.04
